Below, each of the sequences is paired with its reported cleaved RNA product abundance value.
Tested on: Bacillus subtilis
protocol-summary: cleaved RNA product abundance (RNA/gDNA barcode ratio) relative to median wild-type variant (ratio to wild type); higher = more accumulation of the downstream cleavage product
assay-context: experiment (reporter, strain, medium): exp 4a: truncated aprE reporter, strain BJT201 with 2% xylose (RNase J1 expressed); cleavage site: cggR-gapA (positions -7 to +36 mutated)

Please review the entries below; each comes with its answer.
1) ACAGACGAAGGAGCCGCAAAGAAGTTATTAAGCGATGAATAATCCGTCAATATAAATATCTCTCACTTATTTAAA 0.139
2) ACAGACGAAGGAGCCGCAAAGAAGGTATTAAGGGATGAATAATCCCTTAATATAAATATCTCTCACTTATTTAAA 0.326
3) ACAGACGAAGGAGCCGCAAATAAGTTATTATGGGATGAATAATCCCTCTATATAAATATCTCTCACTTATTTAAA 0.483

Now, please, on to the next sequence.
Report measured cleaved RNA product abundance on Bacillus subtilis; entry: ACAGACGAAGGAGCCGCAAGGAAGTTATTAAGGAATGAATAATCCCTCAATATAAATATCTCTCACTTATTTAAA 0.115
